MEASUREMENT_TARGET: human LBAT (Homo sapiens)
Construct: kept under Geneticin selection
Sequence (Q14973 whole entry): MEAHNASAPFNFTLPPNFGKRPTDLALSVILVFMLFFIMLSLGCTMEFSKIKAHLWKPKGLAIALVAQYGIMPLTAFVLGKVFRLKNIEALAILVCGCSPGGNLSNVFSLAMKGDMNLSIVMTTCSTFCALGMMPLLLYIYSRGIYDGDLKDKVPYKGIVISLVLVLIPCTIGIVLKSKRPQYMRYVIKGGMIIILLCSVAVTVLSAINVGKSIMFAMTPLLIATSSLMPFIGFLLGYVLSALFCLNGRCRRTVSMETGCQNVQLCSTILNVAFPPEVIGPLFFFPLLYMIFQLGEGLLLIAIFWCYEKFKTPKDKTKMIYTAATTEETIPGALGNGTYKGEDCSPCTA
ASSAY_REMARKS: LBAT (h/m) assay: 3H-taurocholic acid uptake in human LBAT-overexpressing cells
CONDITION_SUMMARY: 0.3 μM 3H-taurocholic acid and 7.5 μM cold taurocholic acid, 20 minutes, read-out: hLBAT IC50
Method: LBAT (h/m) Assay Protocol […] 100 μL of MicroScint-20 (PerkinElmer 6013621) was added to the wells and kept overnight at room temperature before reading the plates in TopCount NXT™ Microplate Scintillation and Luminescence Counter from PerkinElmer under 3H Test protocol (set at 120 seconds reading time per well, with normal plate orientation). […]
pIC50: −log10 of the molar value.
Below, each entry is listed alongside its reported pIC50.

| COMPOUND | pIC50 |
| --- | --- |
| CCCCC1CN(c2ccc(F)cc2)c2cc(SC)c(O/C=C(\F)C(=O)O)cc2S(=O)(=O)N1 (racemic) [Example 27] | 7.89 |
| CCCCC1CN(c2ccc(F)cc2)c2cc(SC)c(O/C=C/C(=O)O)cc2S(=O)(=O)N1 (single isomer, unassigned) [Example 2] | 6.56 |
| CCCCC1CN(c2ccc(F)cc2)c2cc(SC)c(O/C=C(\F)C(=O)O)cc2S(=O)(=O)C1 (single isomer, unassigned) [Example 12] | 7.82 |
| CCCCC1CN(c2ccccc2)c2cc(SCC)c(O/C=C(\F)C(=O)O)cc2S(=O)(=O)C1 (single isomer, unassigned) [Example 15] | 8.92 |
| CCCCC1CN(c2ccccc2)c2cc(SCC)c(O/C=C(\F)C(=O)O)cc2S(=O)(=O)N1C (racemic) [Example 24] | 8.89 |
| CCCCC1CN(c2ccc(F)cc2)c2cc(SCC)c(O/C=C(\F)C(=O)O)cc2S(=O)(=O)N1C (single isomer, unassigned) [Example 23] | 7.15 |
| CCCCC1CN(c2ccc(F)cc2)c2cc(SCC)c(O/C=C/C(=O)O)cc2S(=O)(=O)C1 (racemic) [Example 7] | 8.59 |
| CCCCC1CN(c2ccc(F)cc2)c2cc(SC)c(O/C=C(\F)C(=O)O)cc2S(=O)(=O)N1C (single isomer, unassigned) [Example 21] | 8.00 |

###

Below, each entry is listed alongside its reported Papp A→B at 120 min, 10 µM.
ASSAY_REMARKS: Bidirectional permeability assay (Caco-2 cells)
Type: in vitro ADME
CONDITION_SUMMARY: human, Caco-2, pH 7.4, absorptive direction (A2B); FaSSIF donor buffer; 120 minutes at 37° C.

| COMPOUND | READOUT_UNIT | Papp A→B at 120 min, 10 µM |
| --- | --- | --- |
| CCCCC1CN(c2ccccc2)c2cc(SCC)c(O/C=C(\F)C(=O)O)cc2S(=O)(=O)N1C (single isomer, unassigned) [Example 25] | ×10⁻⁶ cm/s | 1.9 |
| CCCCC1CN(c2ccc(F)cc2)c2cc(SCC)c(O/C=C(\F)C(=O)O)cc2S(=O)(=O)C1 (racemic) [Example 16] | ×10⁻⁶ cm/s | 1 |
| CCCCC1CN(c2ccc(F)cc2)c2cc(SC)c(O/C=C/C(=O)O)cc2S(=O)(=O)N1 (racemic) [Example 1] | ×10⁻⁶ cm/s | 7.3 |
| CCCCC1CN(c2ccc(F)cc2)c2cc(SC)c(O/C=C/C(=O)O)cc2S(=O)(=O)N1 (single isomer, unassigned) [Example 3] | ×10⁻⁶ cm/s | 10.5 |
| CCCCC1CN(c2ccc(F)cc2)c2cc(SCC)c(O/C=C/C(=O)O)cc2S(=O)(=O)C1 (racemic) [Example 7] | ×10⁻⁶ cm/s | 11.3 |

###

Below, each entry is listed alongside its reported Papp A→B at 120 min, 10 µM.
ASSAY_REMARKS: Bidirectional permeability assay (Caco-2 cells)
Format: in vitro ADME
CONDITION_SUMMARY: human, Caco-2, pH 7.4, absorptive direction (A2B); FaSSIF donor buffer; 120 minutes at 37° C.

| MOLECULE | READOUT_UNIT | Papp A→B at 120 min, 10 µM |
| --- | --- | --- |
| CCCCC1CN(c2ccc(F)cc2)c2cc(SCC)c(O/C=C(\F)C(=O)O)cc2S(=O)(=O)C1 (single isomer, unassigned) [Example 18] | ×10⁻⁶ cm/s | 1.1 |
| CCCCC1CN(c2ccc(F)cc2)c2cc(SC)c(O/C=C(\F)C(=O)O)cc2S(=O)(=O)C1 (racemic) | ×10⁻⁶ cm/s | 2.9 |
| CCCCC1CN(c2ccccc2)c2cc(SCC)c(O/C=C(\F)C(=O)O)cc2S(=O)(=O)C1 (racemic) | ×10⁻⁶ cm/s | 1.8 |
| CCCCC1CN(c2ccc(F)cc2)c2cc(SC)c(O/C=C(\F)C(=O)O)cc2S(=O)(=O)N1C (racemic) [Example 19] | ×10⁻⁶ cm/s | 4.3 |
| CCCCC1CN(c2ccc(F)cc2)c2cc(SCC)c(O/C=C/C(=O)O)cc2S(=O)(=O)N1 (racemic) | ×10⁻⁶ cm/s | 6.5 |
| CCCCC1CN(c2ccc(F)cc2)c2cc(SCC)c(O/C=C/C(=O)O)cc2S(=O)(=O)C1 (single isomer, unassigned) [Example 9] | ×10⁻⁶ cm/s | 15.5 |
| CCCCC1CN(c2ccc(F)cc2)c2cc(SC)c(O/C=C(\F)C(=O)O)cc2S(=O)(=O)N1C (single isomer, unassigned) [Example 20] | ×10⁻⁶ cm/s | 2.7 |

###

MEASUREMENT_TARGET: human LBAT (Homo sapiens)
Construct: expressed in transfected cells; kept under Geneticin selection
ASSAY_REMARKS: LBAT (h/m) assay: 3H-taurocholic acid uptake in human LBAT-overexpressing cells
Assay type: cell-based
CONDITION_SUMMARY: 0.3 μM 3H-taurocholic acid and 7.5 μM cold taurocholic acid, 20 minutes, read-out: hLBAT IC50
pIC50: −log10 of the molar value.
Classification field: enter TRUE for pIC50 values not below 8, FALSE for values below it.

| COMPOUND | MEASUREMENT_TARGET | CATEGORY_LABEL |
| --- | --- | --- |
| CCCCC1CN(c2ccccc2)c2cc(SCC)c(O/C=C(\F)C(=O)O)cc2S(=O)(=O)N1C (single isomer, unassigned) [Example 25] | human LBAT (Homo sapiens) | TRUE |
| CCCCC1CN(c2ccc(F)cc2)c2cc(SCC)c(O/C=C(\F)C(=O)O)cc2S(=O)(=O)C1 (single isomer, unassigned) [Example 17] | human LBAT (Homo sapiens) | TRUE |
| CCCCC1CN(c2ccccc2)c2cc(SCC)c(O/C=C(\F)C(=O)O)cc2S(=O)(=O)N1C (single isomer, unassigned) [Example 26] | human LBAT (Homo sapiens) | FALSE |
| CCCCC1CN(c2ccccc2)c2cc(SCC)c(O/C=C(\F)C(=O)O)cc2S(=O)(=O)C1 (single isomer, unassigned) [Example 14] | human LBAT (Homo sapiens) | FALSE |
| CCCCC1CN(c2ccccc2)c2cc(SCC)c(O/C=C(\F)C(=O)O)cc2S(=O)(=O)C1 (racemic) [Example 13] | human LBAT (Homo sapiens) | TRUE |
| CCCCC1CN(c2ccc(F)cc2)c2cc(SC)c(O/C=C(\F)C(=O)O)cc2S(=O)(=O)N1C (racemic) [Example 19] | human LBAT (Homo sapiens) | TRUE |

###

MEASUREMENT_TARGET: human IBAT (Homo sapiens, UniProt Q12908)
Construct: kept under Puromycin selection
Sequence (Q12908 1-348): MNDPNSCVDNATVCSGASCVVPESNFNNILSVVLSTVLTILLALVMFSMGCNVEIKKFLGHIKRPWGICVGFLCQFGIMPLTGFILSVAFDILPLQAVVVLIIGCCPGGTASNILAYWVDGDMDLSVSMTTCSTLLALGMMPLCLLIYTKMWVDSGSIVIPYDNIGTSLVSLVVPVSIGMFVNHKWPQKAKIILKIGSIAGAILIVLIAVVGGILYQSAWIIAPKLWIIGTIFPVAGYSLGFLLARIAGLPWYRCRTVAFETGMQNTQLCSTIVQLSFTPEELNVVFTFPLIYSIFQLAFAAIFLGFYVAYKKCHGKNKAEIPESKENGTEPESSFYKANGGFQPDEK
ASSAY_REMARKS: IBAT (h/m) assay: 3H-taurocholic acid uptake in human IBAT-overexpressing cells
CONDITION_SUMMARY: 0.25 μM 3H-taurocholic acid and 5 μM cold taurocholic acid, 20 minutes, highest test concentration 10 μM, read-out: hIBAT IC50
pIC50: −log10 of the molar value.

| COMPOUND | pIC50 |
| --- | --- |
| CCCCC1CN(c2ccccc2)c2cc(SCC)c(O/C=C/C(=O)O)cc2S(=O)(=O)N1 (racemic) [Example 4] | < 5.00 |
| CCCCC1CN(c2ccccc2)c2cc(SCC)c(O/C=C(\F)C(=O)O)cc2S(=O)(=O)C1 (single isomer, unassigned) [Example 15] | < 5.48 |
| CCCCC1CN(c2ccc(F)cc2)c2cc(SC)c(O/C=C(\F)C(=O)O)cc2S(=O)(=O)N1C (single isomer, unassigned) [Example 21] | < 5.48 |
| CCCCC1CN(c2ccc(F)cc2)c2cc(SCC)c(O/C=C/C(=O)O)cc2S(=O)(=O)C1 (racemic) [Example 7] | < 5.00 |

Hello, the source for this data is patent US11572350B1, in case you need it.
